# Tested on: OV90
# measurement.protocol: Primary qHTS to identify gynecologic anti-cancer compounds using libraries of approved drugs and bioactive compounds (AID 1345084); further: on the % scale 0 is the no-effect control and ±100 the full control effect; nearly all actives have a fitted effect of over 55% in size
# study.conditions: Gynecologic cancer cell panel viability, ATPlite luminescence, 48 h; series mostly up to 57.5 µM
Inconclusive results are not listed. Calls of active or inactive are those of the source. The call rests on the fitted dose curve; in most records, active means well fitted cell-killing curve with a large enough effect; inconclusive means small, poorly fitted or top-dose-only effect, or effect the other way; inactive means flat fitted curve, though single readings scatter.
Answer with one of the outcomes given here: active, inactive

*Q* Write down the call the test reported for this compound. Item: `CC#C[C@]1(O)CC[C@H]2[C@@H]3CCC4=CC(=O)CCC4=C3[C@@H](c3ccc(N(C)C)cc3)C[C@@]21C`
*A* inactive

*Q* Next: `Nc1nnc(-c2cccc(Cl)c2Cl)c(N)n1`
*A* inactive

*Q* Also, `Cn1ccc2cc3c(cc21)CCN3C(=O)Nc1cccnc1` please.
*A* inactive

*Q* Moving on to `CCOC(=O)C(C)(C)Oc1ccc(Cl)cc1`
*A* inactive

*Q* Ok, now `COc1nc(C)nc(Cl)c1NC1=NCCN1`
*A* inactive

###

# System: CP217
# measurement.protocol: qHTS profiling for inhibitors of Plasmodium falciparum proliferation (AID 504749); further: nearly all actives have a fitted effect of over 60% in size
# study.conditions: P. falciparum in erythrocytes, SYBR Green DNA, 72 h; series mostly up to 28.7 µM
# Procedure: NIH National Institute of Allergy and Infectious Diseases [NIAID] NIH Chemical Genomics Center [NCGC] […] Because mature erythrocytes lack DNA, only Plasmodium-derived DNA is detected. NCGC Assay Protocol Summary: The SYBR Green viability assay was adapted from a method described previously (Plouffe et al., 2008). […] The following morning, fluorescence intensity at 485(14) nm excitation and 535(25) nm emission wavelengths was measured on an EnVision (Perkin Elmer) plate reader. […]
Results filed as inconclusive are left out. Active and inactive are the calls of the source. Calls come from the whole dose curve; as a rule, active = well fitted inhibition curve with a large enough effect; inconclusive = small, poorly fitted or top-dose-only effect; inactive = flat fitted curve, though single readings scatter.

molecular.string | measured.on | outcome
Cc1cnc(C(=O)NCCc2ccc(S(=O)(=O)NC(=O)NC3CCCCC3)cc2)cn1 | CP217 | inactive
Nc1c2c(nc3ccccc13)CCCC2 | CP217 | inactive
Cc1cn([C@H]2C=C[C@@H](CO)O2)c(=O)[nH]c1=O | CP217 | inactive

###

# measurement.protocol: qHTS profiling for inhibitors of Plasmodium falciparum proliferation (AID 504749); further: nearly all actives have a fitted effect of over 60% in size;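 on activity, negative = inhibition: 0% = DMSO vehicle and full inhibition = artemisinin control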
# study.conditions: P. falciparum in erythrocytes, SYBR Green DNA, 72 h; at 12.8 µM (top of the series); parasite line A
Records with an inconclusive call do not appear. Activity calls are given as the source filed them. Calls come from the whole dose curve; as a rule, active = well fitted inhibition curve with a large enough effect; inconclusive = small, poorly fitted or top-dose-only effect; inactive = flat fitted curve, though single readings scatter.
test.readout: activity, negative = inhibition

Some molecules with recorded activity, negative = inhibition:
molecular.string | test.readout | result
CN(C)C(=N)N=C(N)N | activity, negative = inhibition | 11.7% (inactive)
CS(=O)(=O)Nc1ccc([N+](=O)[O-])cc1Oc1ccccc1 | activity, negative = inhibition | 15.2% (inactive)
COc1nc(C)nc(Cl)c1NC1=NCCN1 | activity, negative = inhibition | 1.48% (inactive)
NCCCCCC(=O)O | activity, negative = inhibition | 3.43% (inactive)
Nc1nc2c(ncn2COC(CO)CO)c(=O)[nH]1 | activity, negative = inhibition | -0.332% (inactive)

*Q* # query: activity, negative = inhibition of entry `CN1C(C(=O)Nc2ccccn2)=C(O)c2ccccc2S1(=O)=O`
*A* -3.72% (inactive)

###

# Tested on: C2A
# measurement.protocol: qHTS profiling for inhibitors of Plasmodium falciparum proliferation (AID 504749); further: nearly all actives have a fitted effect of over 60% in size
# study.conditions: P. falciparum in erythrocytes, SYBR Green DNA, 72 h; series mostly up to 28.7 µM
Results filed as inconclusive are left out. Activity calls are given as the source filed them. Calls come from the whole dose curve; as a rule, active = well fitted inhibition curve with a large enough effect; inconclusive = small, poorly fitted or top-dose-only effect; inactive = flat fitted curve, though single readings scatter.
test.readout: outcome

molecular.string | measured.on | test.readout | result
Cn1cnc2c1c(=O)[nH]c(=O)n2C | C2A | outcome | inactive
CS(=O)(=O)CCNCc1ccc(-c2ccc3ncnc(Nc4ccc(OCc5cccc(F)c5)c(Cl)c4)c3c2)o1 | C2A | outcome | inactive
NC(=O)NO | C2A | outcome | inactive

###

# Test system: PC15
# measurement.protocol: qHTS profiling for inhibitors of Plasmodium falciparum proliferation (AID 504749); further: nearly all actives have a fitted effect of over 60% in size
# study.conditions: P. falciparum in erythrocytes, SYBR Green DNA, 72 h; series mostly up to 28.7 µM
Records with an inconclusive call do not appear. Activity calls are given as the source filed them. Calls come from the whole dose curve; as a rule, active = well fitted inhibition curve with a large enough effect; inconclusive = small, poorly fitted or top-dose-only effect; inactive = flat fitted curve, though single readings scatter.
Respond with a class label; see True (active), False (inactive)

compound | label.value
COc1ccccc1OCC(O)CN1CCN(CC(=O)Nc2c(C)cccc2C)CC1 (stereo unspecified) | False
NC(=O)NO | False

*Q* Could you kindly confirm the outcome this assay logged for `CC(=O)OCC(CCn1cnc2cnc(N)nc21)COC(C)=O` ?
*A* False

*Q* Do the same for `O=C(c1ccc(F)cc1)C1CCN(CCn2c(=O)[nH]c3ccccc3c2=O)CC1` please
*A* False

*Q* CCCNCC(O)COc1ccccc1C(=O)CCc1ccccc1 (stereo unspecified) , same question.
*A* True

*Q* Next compound up: `C[C@](N)(Cc1ccc(O)c(O)c1)C(=O)O`
*A* False

###

# measured.on: Cytochrome P450 2C9 (Homo sapiens) (UniProt P11712)
# Sequence (P11712 whole entry, looked up): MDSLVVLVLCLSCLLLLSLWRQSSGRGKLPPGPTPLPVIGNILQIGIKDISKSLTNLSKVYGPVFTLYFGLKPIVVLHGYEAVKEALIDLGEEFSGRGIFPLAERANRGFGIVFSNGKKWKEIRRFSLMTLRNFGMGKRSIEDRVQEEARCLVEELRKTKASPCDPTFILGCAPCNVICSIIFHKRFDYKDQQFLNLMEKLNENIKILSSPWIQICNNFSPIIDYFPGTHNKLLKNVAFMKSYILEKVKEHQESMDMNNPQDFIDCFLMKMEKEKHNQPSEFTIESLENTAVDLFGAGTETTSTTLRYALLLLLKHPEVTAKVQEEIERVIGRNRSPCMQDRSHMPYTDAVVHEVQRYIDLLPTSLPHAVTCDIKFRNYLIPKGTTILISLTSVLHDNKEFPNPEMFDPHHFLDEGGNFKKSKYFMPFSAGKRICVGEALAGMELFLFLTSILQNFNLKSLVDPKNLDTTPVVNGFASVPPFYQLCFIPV
# measurement.protocol: Cytochrome P450 family 2 subfamily C member 9 (CYP2C9) small molecule antagonists: luciferase biochemical (cell-free) qHTS assay (AID 1645842); further: nearly all actives have a fitted effect of over 55% in size
# study.conditions: P450-Glo CYP2C9 enzyme assay, luciferin luminescence; series mostly up to 57.4 µM
Inconclusive results are not listed. Active and inactive are the calls of the source. Calls come from the whole dose curve; as a rule, active = well fitted inhibition curve with a large enough effect in the repeat runs; inconclusive = weak or mixed curves; inactive = no such curve, though single readings can be large or run the other way.
Give one outcome, nothing more. List: 1 for active, 0 for inactive

Worked examples, 6 compounds total:
compound | label.value
CCc1cccc2c3c([nH]c12)C(CC)(CC(=O)O)OCC3 (stereo not given) | 1
CC[N+](CC)(CC)CCOc1cccc(OCC[N+](CC)(CC)CC)c1OCC[N+](CC)(CC)CC | 0
CC#C[C@]1(O)CC[C@H]2[C@@H]3CCC4=CC(=O)CCC4=C3[C@@H](c3ccc(N(C)C)cc3)C[C@@]21C | 1
Nc1c2c(nc3ccccc13)CCCC2 | 0
CN1CCC(=C2c3ccccc3CC(=O)c3sccc32)CC1 | 0
COc1cc2nc(N3CCN(C(=O)c4ccco4)CC3)nc(N)c2cc1OC | 0

*Q* GET /call?item= `Cc1ccc(-c2cc(C(F)(F)F)nn2-c2ccc(S(N)(=O)=O)cc2)cc1` returns the recorded outcome of this test.
*A* 1

*Q* Entry to check: CC(C)NCC(O)c1ccc(O)c(O)c1 (stereo not given)
*A* 0

*Q* Proceed to `O=C1N(c2ccccc2)c2ccccc2C1(Cc1ccncc1)Cc1ccncc1`
*A* 1

*Q* Also check Cc1ccccc1N1C(=O)c2cc(S(N)(=O)=O)c(Cl)cc2NC1C (stereo not given)
*A* 0

*Q* And `NS(=O)(=O)c1cc2c(cc1Cl)NCNS2(=O)=O` ?
*A* 0

*Q* Likewise for `CS(=O)(=O)Nc1ccc([N+](=O)[O-])cc1Oc1ccccc1` ?
*A* 1

*Q* Another: `Cn1ccc2cc3c(cc21)CCN3C(=O)Nc1cccnc1`
*A* 0

*Q* Would you mind doing `O=c1[nH]cc(F)c(=O)[nH]1` as well?
*A* 0

###

# measurement.protocol: Quantitative High-Throughput drug screen in 47 multiple myeloma cell lines against the NCATS MIPE library collection: XG1_PLB cell viability assay (AID 1919866); further: nearly all actives have a fitted effect of over 35% in size
# study.conditions: CellTiter-Glo ATP, 48 h; series mostly up to 45.8 µM
Inconclusive results are not listed. Active and inactive are the calls of the source. Calls follow the shape of the dose curve; as a rule, active = well fitted cell-killing curve with a large enough effect; inconclusive = small, poorly fitted or top-dose-only effect, or effect the other way; inactive = no such curve, though single readings can be large or run the other way.
Permitted responses: active, inactive

Record excerpt, results attached:
compound | label.value
N[C@@H](Cc1c[nH]c2ccc(O)cc12)C(=O)O | inactive
O=C(Nc1ccc([N+](=O)[O-])cc1Cl)c1cc(Cl)ccc1O | active
COc1ccccc1OCCNCC(O)COc1cccc2[nH]c3ccccc3c12 (stereo not drawn) | active
CCOC(=O)Nc1ccc(NCc2ccc(F)cc2)nc1N | inactive

*Q* GET /call?item= `OCCN(CCO)c1nc(N2CCCCC2)c2nc(N(CCO)CCO)nc(N3CCCCC3)c2n1` returns the recorded outcome of this test.
*A* active

*Q* Check `O=c1c(O)c(-c2ccc(O)c(O)c2)oc2cc(O)cc(O)c12` too.
*A* active

*Q* What do you get for `CN1CCN(CCCN2c3ccccc3Sc3ccc(Cl)cc32)CC1` ?
*A* active

*Q* Again, but for CC(CCc1ccc(O)cc1)NCCc1ccc(O)c(O)c1 (stereo not drawn)
*A* active

###

# measurement.protocol: Quantitative High-Throughput drug screen in 47 multiple myeloma cell lines against the NCATS MIPE library collection: Karpas25_ECACC cell viability assay (AID 1918968; further: nearly all actives have a fitted effect of over 35% in size)
# study.conditions: Karpas25 myeloma viability, CellTiter-Glo ATP, 48 h; series mostly up to 45.8 µM
# From the text: PI: Beverly A. Mock Ph.D. Laboratory of Cancer Biology and Genetics, Center for Cancer Research, National Cancer Institute, National Institute of Health, Bethesda, Maryland […] 5; Detector; 425V; Luminescence; Viewlux PerkinElmer. […] 1. […] Briefly, the corresponding myeloma cell lines were screened in 1,536-well plates with 500 cells, 5-uL per well for inhibition of cell viability (assessed by measuring ATP levels with CellTiterGlo). […]
Results filed as inconclusive are left out. The source made the active and inactive calls. The call rests on the fitted dose curve; in most records, active means well fitted cell-killing curve with a large enough effect; inconclusive means small, poorly fitted or top-dose-only effect, or effect the other way; inactive means no such curve, though single readings can be large or run the other way.
Choose the fitting class; nothing outside yes = active, no = inactive is accepted.

Previously resolved entries follow.
compound | label.value
O=C(CCCN1CCC(O)(c2ccc(Cl)cc2)CC1)c1ccc(F)cc1 | yes
CC(=O)OCC(CCn1cnc2cnc(N)nc21)COC(C)=O | no
Nc1nc2c(ncn2COC(CO)CO)c(=O)[nH]1 | yes
CC(C)NCC(O)c1ccc(O)c(O)c1 (stereo unspecified) | yes
CC[N+](CC)(CC)CCOc1cccc(OCC[N+](CC)(CC)CC)c1OCC[N+](CC)(CC)CC | no

*Q* Which result was noted for this compound in the test: Cc1ccccc1N1C(=O)c2cc(S(N)(=O)=O)c(Cl)cc2NC1C (stereo unspecified)
*A* no
